B1: Kinesin-like protein KIF16B, residues 1213 to 1273; numbered along this chain, Q96L93 (parent)
chain: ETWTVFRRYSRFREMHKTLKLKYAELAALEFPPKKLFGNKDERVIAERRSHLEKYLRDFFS

# Variants of: B1
# ASSAY PROTOCOL: abundance fitness (aPCA) (normalised: wild type 0, dead -1); higher = more abundant; growth selection in yeast, the domain comes from the species named
# REPORTED CONDITIONS: Homo sapiens
Classify by measured abundance fitness: class 1 if it is equal to or exceeds 0.005, class 0 if it is smaller.

INSERT INTO results (variant_descriptor, assigned_class) VALUES
  ('T4L', 'class 0'),
  ('R48F', 'class 1'),
  ('T18A', 'class 1'),
  ('L56E', 'class 0'),
  ('H16Y', 'class 1'),
  ('G38I', 'class 0'),
  ('R49Q', 'class 0'),
  ('E42S', 'class 1'),
  ('F60P', 'class 0'),
  ('R43D', 'class 0'),
  ('P33E', 'class 0'),
  ('H16T', 'class 1'),
  ('D41R', 'class 0'),
  ('Y23I', 'class 0'),
  ('R49A', 'class 0'),
  ('S50D', 'class 0'),
  ('D58S', 'class 0'),
  ('Y23W', 'class 1'),
  ('R43C', 'class 0'),
  ('A24W', 'class 0'),
  ('A27V', 'class 0'),
  ('L21R', 'class 1'),
  ('L29H', 'class 0'),
  ('E30A', 'class 1'),
  ('W3T', 'class 0'),
  ('A27K', 'class 1'),
  ('R43I', 'class 0'),
  ('E53N', 'class 1'),
  ('R11S', 'class 1'),
  ('I45F', 'class 1'),
  ('Y23T', 'class 0'),
  ('A46M', 'class 0'),
  ('F37C', 'class 0'),
  ('L56Y', 'class 0'),
  ('R57C', 'class 0'),
  ('F31E', 'class 0'),
  ('S50F', 'class 0');

Hey, just so you know, these numbers are from the Human Domainome abundance scans (Beltran et al. 2025).
